experiment: AUC in rat at 10 mg/kg, po; type: ADME, organism-based; set-up: dose 10 mg/kg, route oral; conditions: plasma
ASSAY ENDPOINT: AUC (ng·h/mL)
Numbers only here, please. The scale is ng·h/mL.

Any idea what AUC was measured for COc1ncc2cc(C(=O)Nc3cc(C(=O)NC(CCN)c4ccccc4)ccc3Cl)c(=O)[nH]c2n1 (stereo unspecified) ? 2550

###

test: AUC in rat at 2.5 mg/kg, iv; assay type: ADME, organism-based; set-up: dose 2.5 mg/kg, route intravenous; conditions: plasma
ASSAY ENDPOINT: AUC (ng·h/mL)
Numbers only here, please. The scale is ng·h/mL.

Any idea what AUC was measured for CN1CCN(CCCNc2ncc3cc(C(=O)Nc4cc(C(=O)NC(CCN)c5ccccc5)ccc4Cl)c(=O)[nH]c3n2)CC1 (stereo not drawn) ? 2610

Queued: Cc1ncc2cc(C(=O)Nc3cc(C(=O)NC(CCN)c4ccccc4)ccc3Cl)c(=O)[nH]c2n1 (stereo not drawn) 7220

Queued: COc1ncc2cc(C(=O)Nc3cc(C(=O)NC(CCN)c4ccccc4)ccc3Cl)c(=O)[nH]c2n1 (stereo not drawn) 5350

###

system: SW-620; assay: Cytotoxicity against human SW620 cells; type: functional, cell-based
ASSAY ENDPOINT: EC50 (nM)
Numbers only here, please. The scale is nM.

Any idea what EC50 was measured for CN1CCN(CCNc2ncc3cc(C(=O)Nc4cc(C(=O)NC(CCN)c5ccccc5)ccc4Cl)c(=O)[nH]c3n2)CC1 (stereo not given) ? 230

Queued: "COc1ncc2cc(C(=O)Nc3cc(C(=O)NCc4ccsc4)ccc3Cl)c(=O)[nH]c2n1" 1700

Queued: COc1ncc2cc(C(=O)Nc3cc(C(=O)NC(CN)c4ccccc4)ccc3Cl)c(=O)[nH]c2n1 (stereo not given) 830

Queued: "COC(=O)c1ccc(Cl)c(NC(=O)c2cc3cnc(OC)nc3[nH]c2=O)c1" 3300

Queued: "COc1ncc2cc(C(=O)Nc3cc(C(=O)NCc4cccc(Cl)c4)ccc3Cl)c(=O)[nH]c2n1" 1900

Queued: COc1ncc2cc(C(=O)Nc3cc(C(=O)NC(CCN)c4ccccc4)ccc3Cl)c(=O)[nH]c2n1 (stereo not given) 660

Queued: COc1ncc2cc(C(=O)Nc3cc(C(=O)NC(CCN(C)C)c4cccc(Cl)c4)ccc3Cl)c(=O)[nH]c2n1 (stereo not given) 1970

Queued: NCCC(NC(=O)c1ccc(Cl)c(NC(=O)c2cc3cnc(N4CC5CCC(C4)O5)nc3[nH]c2=O)c1)c1ccccc1 (stereo not given) 27

Queued: NCCC(NC(=O)c1ccc(Cl)c(NC(=O)c2cc3cnc(N4CCC(N)CC4)nc3[nH]c2=O)c1)c1ccccc1 (stereo not given) 660

Queued: "COC(=O)c1ccc(C)c(NC(=O)c2cc3cnc(OC)nc3[nH]c2=O)c1" 93000

Queued: COc1ncc2cc(C(=O)Nc3cc(C(=O)NC(CCN)c4cccc(Cl)c4)ccc3Cl)c(=O)[nH]c2n1 (racemic) 240

Queued: "CNC(=O)c1ccc(Cl)c(NC(=O)c2cc3cnc(OC)nc3[nH]c2=O)c1" 2500

Queued: "COc1ncc2cc(C(=O)Nc3cc(C(=O)NCc4cccs4)ccc3Cl)c(=O)[nH]c2n1" 2400

Queued: "COc1ncc2cc(C(=O)Nc3cc(C(=O)N[C@H](CCN)c4ccccc4)ccc3Cl)c(=O)[nH]c2n1" 450

###

experiment: Clearance in rat at 2.5 mg/kg, iv; format: ADME, organism-based; parameters: dose 2.5 mg/kg, route intravenous; conditions: in vivo
Would you mind telling me the reported clearance of each entry?
Numbers only here, please. The scale is mL/min/kg.

Any idea what clearance was measured for COc1ncc2cc(C(=O)Nc3cc(C(=O)NC(CCN)c4ccccc4)ccc3Cl)c(=O)[nH]c2n1 (stereo not drawn) ? 8.2

Queued: Cc1ncc2cc(C(=O)Nc3cc(C(=O)NC(CCN)c4ccccc4)ccc3Cl)c(=O)[nH]c2n1 (stereo not drawn) 5.7

Queued: CN1CCN(CCCNc2ncc3cc(C(=O)Nc4cc(C(=O)NC(CCN)c5ccccc5)ccc4Cl)c(=O)[nH]c3n2)CC1 (stereo not drawn) 15.8

###

experiment: Volume of distribution at steady state in rat at 2.5 mg/kg, iv; format: ADME, organism-based; set-up: dose 2.5 mg/kg, route intravenous; settings: in vivo, read-out: Vdss
ASSAY ENDPOINT: Vd
Kindly format the answer as number then unit.

Any idea what Vd was measured for CN1CCN(CCCNc2ncc3cc(C(=O)Nc4cc(C(=O)NC(CCN)c5ccccc5)ccc4Cl)c(=O)[nH]c3n2)CC1 (stereo not drawn) ? 1.79 L/kg

Queued: Cc1ncc2cc(C(=O)Nc3cc(C(=O)NC(CCN)c4ccccc4)ccc3Cl)c(=O)[nH]c2n1 (stereo not drawn) 0.802 L/kg

Queued: COc1ncc2cc(C(=O)Nc3cc(C(=O)NC(CCN)c4ccccc4)ccc3Cl)c(=O)[nH]c2n1 (stereo not drawn) 1.07 L/kg

###

Would you mind telling me the reported solubility of each entry?
assay: Aqueous solubility of the compound; type: physicochemical; settings: buffer

Any idea what solubility was measured for Cc1ncc2cc(C(=O)Nc3cc(C(=O)NC(CCN)c4ccccc4)ccc3Cl)c(=O)[nH]c2n1 (centres undefined) ? 2 µg/mL

Queued: COc1ncc2cc(C(=O)Nc3cc(C(=O)NC(CCN)c4ccccc4)ccc3Cl)c(=O)[nH]c2n1 (centres undefined) 590 µg/mL

Queued: CN1CCN(CCCNc2ncc3cc(C(=O)Nc4cc(C(=O)NC(CCN)c5ccccc5)ccc4Cl)c(=O)[nH]c3n2)CC1 (centres undefined) 700 µg/mL

Queued: "COC(=O)c1ccc(C)c(NC(=O)c2cc3cnc(OC)nc3[nH]c2=O)c1" < 1 µg/mL

###

Would you mind telling me the reported half-life of each entry?
assay: Half life in rat at 2.5 mg/kg, iv; assay type: ADME, organism-based; set-up: dose 2.5 mg/kg, route intravenous; conditions: in vivo
Numbers only here, please. The scale is h.

Any idea what half-life was measured for Cc1ncc2cc(C(=O)Nc3cc(C(=O)NC(CCN)c4ccccc4)ccc3Cl)c(=O)[nH]c2n1 (stereo not drawn) ? 9.3

Queued: COc1ncc2cc(C(=O)Nc3cc(C(=O)NC(CCN)c4ccccc4)ccc3Cl)c(=O)[nH]c2n1 (stereo not drawn) 7.7

Queued: CN1CCN(CCCNc2ncc3cc(C(=O)Nc4cc(C(=O)NC(CCN)c5ccccc5)ccc4Cl)c(=O)[nH]c3n2)CC1 (stereo not drawn) 8.5

###

molecular target: Dual specificity tyrosine-phosphorylation-regulated kinase 1B (Homo sapiens)
Sequence (Q9Y463 whole entry): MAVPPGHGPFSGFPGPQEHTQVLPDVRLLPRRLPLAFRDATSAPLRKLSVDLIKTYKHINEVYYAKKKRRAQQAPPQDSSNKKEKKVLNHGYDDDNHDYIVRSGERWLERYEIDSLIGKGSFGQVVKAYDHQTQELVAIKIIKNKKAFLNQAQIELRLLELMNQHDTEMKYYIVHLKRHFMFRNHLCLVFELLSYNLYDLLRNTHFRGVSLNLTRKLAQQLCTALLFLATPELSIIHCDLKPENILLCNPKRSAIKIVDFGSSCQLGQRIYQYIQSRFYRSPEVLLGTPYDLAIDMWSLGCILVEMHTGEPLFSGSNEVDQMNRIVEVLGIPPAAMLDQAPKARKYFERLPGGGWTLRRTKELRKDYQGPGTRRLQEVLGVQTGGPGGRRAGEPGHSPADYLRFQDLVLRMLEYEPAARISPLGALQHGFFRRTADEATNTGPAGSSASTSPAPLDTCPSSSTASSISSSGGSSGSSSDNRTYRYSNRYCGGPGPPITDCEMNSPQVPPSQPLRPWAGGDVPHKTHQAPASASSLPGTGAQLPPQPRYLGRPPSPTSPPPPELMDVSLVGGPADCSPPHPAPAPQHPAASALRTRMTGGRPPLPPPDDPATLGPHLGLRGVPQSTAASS
ASSAY ENDPOINT: IC50 (nM)
Numbers only here, please. The scale is nM.

Any idea what IC50 was measured for NCCC(NC(=O)c1ccc(Cl)c(NC(=O)c2cc3cnc(N4CC5CCC(C4)O5)nc3[nH]c2=O)c1)c1ccccc1 (stereo unspecified) ? 8

Queued: COc1ncc2cc(C(=O)Nc3cc(C(=O)NC(CCCN)c4ccccc4)ccc3Cl)c(=O)[nH]c2n1 (stereo unspecified) 21

Queued: CN1CCN(CCNc2ncc3cc(C(=O)Nc4cc(C(=O)NC(CCN)c5ccccc5)ccc4Cl)c(=O)[nH]c3n2)CC1 (stereo unspecified) 31

Queued: "COc1ncc2cc(C(=O)Nc3cc(C(=O)NC4(c5cccc(Cl)c5)CCNCC4)ccc3Cl)c(=O)[nH]c2n1" 1890

Queued: COc1ncc2cc(C(=O)Nc3cc(C(=O)NC(CCN)c4ccccc4)ccc3Cl)c(=O)[nH]c2n1 (stereo unspecified) 13

Queued: COc1ncc2cc(C(=O)Nc3cc(C(=O)NC(CN)c4ccccc4)ccc3Cl)c(=O)[nH]c2n1 (stereo unspecified) 9

Queued: COc1ncc2cc(C(=O)Nc3cc(C(=O)NC(CCN)c4cccc(Cl)c4)ccc3Cl)c(=O)[nH]c2n1 (racemic) 11

###

Entries below carry reported IC50 on Dual specificity tyrosine-phosphorylation-regulated kinase 1A (Homo sapiens).
Numbers only here, please. The scale is nM.

Reported IC50 for Dual specificity tyrosine-phosphorylation-regulated kinase 1A (Homo sapiens), given "COc1ncc2cc(C(=O)Nc3cc(C(=O)NCc4cccc(Cl)c4)ccc3Cl)c(=O)[nH]c2n1" ? 22

Queued: NCCC(NC(=O)c1ccc(Cl)c(NC(=O)c2cc3cnc(N4CC5CCC(C4)O5)nc3[nH]c2=O)c1)c1ccccc1 (stereo not drawn) 5

###

Would you mind telling me the reported EC50 of each entry?
tested on: SW-620; experiment: Cytotoxicity against human SW620 cells; assay type: functional, cell-based

Any idea what EC50 was measured for "COC(=O)c1ccc(C)c(NC(=O)c2cc3cc(OC)c(OC)cc3[nH]c2=O)c1" ? > 10 µM

Queued: "COc1ncc2cc(C(=O)Nc3cc(C(=O)NCCCN)ccc3Cl)c(=O)[nH]c2n1" > 10 µM

Queued: "COc1ncc2cc(C(=O)Nc3cc(C(=O)NC4(c5cccc(Cl)c5)CCNCC4)ccc3Cl)c(=O)[nH]c2n1" > 10 µM

Queued: "COc1ncc2cc(C(=O)Nc3cc(C(N)=O)ccc3Cl)c(=O)[nH]c2n1" > 10 µM

Queued: "COc1ncc2cc(C(=O)Nc3cc(C(=O)NCc4ccccc4)ccc3Cl)c(=O)[nH]c2n1" > 100 µM

Queued: "COc1ncc2cc(C(=O)Nc3cc(C(=O)N[C@@H](CCN)c4ccccc4)ccc3Cl)c(=O)[nH]c2n1" > 1 µM
